# TESTED_TARGET: thrombin (human plasma) (Homo sapiens, UniProt P00734;P00734 328-363;364-622)
# ASSAY: fluorescence anisotropy; 0.1% Tween 20, 75 nM aptamer; Hill fit; Thrombin: TGK (192 mM Tris, 5 mM KH2PO4, 25 mM glycine hydrochloride; pH not stated) +/- 0.1% Tween 20, thrombin stock in 1 mg/mL BSA, 25 C, 40 min; HSA: PBS +
OBSERVATION_TYPE: Kd (nM)

* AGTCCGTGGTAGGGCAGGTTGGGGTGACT (structured_DNA) [TR-labeled thrombin-binding 29mer] | 30
